Let's look at some binders and their measured cAMP pA2.
# TARGET_OR_SYSTEM: glucagon receptor (UniProt P47871 26-477, limits assumed)
# Sequence (P47871 26-477 limits assumed): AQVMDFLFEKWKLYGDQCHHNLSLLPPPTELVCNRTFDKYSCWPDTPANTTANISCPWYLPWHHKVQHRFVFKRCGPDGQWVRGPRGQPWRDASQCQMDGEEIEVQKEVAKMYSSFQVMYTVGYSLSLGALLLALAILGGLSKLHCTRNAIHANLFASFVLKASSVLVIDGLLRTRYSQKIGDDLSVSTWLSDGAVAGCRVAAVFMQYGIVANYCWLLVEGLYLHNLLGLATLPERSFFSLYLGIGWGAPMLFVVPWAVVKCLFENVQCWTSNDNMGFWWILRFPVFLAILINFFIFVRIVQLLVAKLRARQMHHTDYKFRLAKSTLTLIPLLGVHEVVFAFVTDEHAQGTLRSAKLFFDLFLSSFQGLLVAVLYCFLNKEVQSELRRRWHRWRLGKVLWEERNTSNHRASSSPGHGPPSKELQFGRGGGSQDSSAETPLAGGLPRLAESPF
# RUN_DESCRIPTION: cell-based or functional assay
Square brackets hold non-standard residues; d marks the D form. Ends that are not written are not given here. Abu(4-SO3H) = N[C@@H](CCS(=O)(=O)O)C(=O)O
Respond with the number and no other words.

1) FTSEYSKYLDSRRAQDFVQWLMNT-NH2 (also called [E^9]Glucagon(aa6-29)-NH2; peptide no) [[Glu^9]Glucagon(aa6-29)-NH2]; 7.16

Note down cAMP pA2 recorded for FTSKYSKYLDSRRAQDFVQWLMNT-NH2 (also called [K^9]Glucagon(aa6-29)-NH2; peptide no) [[Lys^9]Glucagon(aa6-29)-NH2]
6.58

Supply reported cAMP pA2 belonging to this binder: FTS[Abu(4-SO3H)]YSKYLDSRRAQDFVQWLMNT-NH2 (also called [hCys(SO3)9]Glucagon(aa6-29)-NH2) [[hCys^9(SO3H)]Glucagon(aa6-29)-NH2]
7.16

# return recorded cAMP pA2 for input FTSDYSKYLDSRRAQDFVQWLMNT-NH2 (also called peptide no) [Glucagon(aa6-29)-NH2]
6.94
